# tested_on: T1, membrane-bound human BCMA (human, UniProt Q02223 1-184)
# T1 construct: whole, on cells; also called huBCMA
# T1 sequence (looked up): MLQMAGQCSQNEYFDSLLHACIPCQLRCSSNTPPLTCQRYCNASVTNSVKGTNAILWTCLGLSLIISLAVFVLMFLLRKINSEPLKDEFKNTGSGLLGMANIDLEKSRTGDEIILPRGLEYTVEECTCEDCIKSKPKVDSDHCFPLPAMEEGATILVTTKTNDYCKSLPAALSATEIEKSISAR
# experiment_notes: flow cytometry on MM.1S cells (endogenous BCMA), printed as apparent affinity
parameter_measured: EC50 (nM)
Please state the figure in nM; there is no need to write the unit.

L15 (lead optimized clone of 15B2GL) (antibody, V domains shown, Cloned into an IgG mammalian expression vector ("Maia") designed for ADC conjugation) VH: EVQLVESGGGLVKPGGSLRLSCAASGFTFSSYSMNWVRQAPGKGLEWVSSISGQSNYIYYADSVKGRFTISRDNAKNSLYLQMNSLRAEDTAVYYCARGGNYFVEYFQYWGQGTLVTVSS VL: EIVLTQSPGTLSLSPGERATLSCRASQYISSNNLAWYQQKPGQAPRLLIYGASNRATGIPDRFSGSGSGTDFTLTISRLEPEDFAVYYCQQYADSPITFGQGTKLEIK
4.2
anti-BCMA antibody J6M0 (antibody, V domains shown) VH: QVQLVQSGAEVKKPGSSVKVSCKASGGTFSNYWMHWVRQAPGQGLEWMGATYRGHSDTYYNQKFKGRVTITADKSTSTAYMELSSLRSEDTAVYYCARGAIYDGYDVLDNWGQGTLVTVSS VL: DIQMTQSPSSLSASVGDRVTITCSASQDISNYLNWYQQKPGKAPKLLIYYTSNLHSGVPSRFSGSGSGTDFTLTISSLQPEDFATYYCQQYRKLPWTFGQGTKLEIK
6.65

*Q* Quick one: EC50 of I09 (lead optimized clone of 15B2GL) (antibody, V domains shown, Cloned into an IgG mammalian expression vector ("Maia") designed for ADC conjugation; also called 109 [sic]) VH: EVQLVESGGGLVKPGGSLRLSCAASGFTFSSYSMNWVRQAPGKGLEWVSSISGSSNYIYYADSVKGRFTISRDNAKNSLYLQMNSLRAEDTAVYYCARGGNYFVEYFQQWGQGTLVTVSS VL: EIVLTQSPGTLSLSPGERATLSCRASQYISSNYLAWYQQKPGQAPRLLIYGASNRATGIPDRFSGSGSGTDFTLTISRLEPEDFAVYYCQQYSSDPITFGQGTKLEIK ?
*A* 4.8

*Q* Quick one: EC50 of 15B2GL monoclonal antibody (antibody, V domains shown, Clone 15B2 was converted into human IgG1 and germlined at four residues (15B2GL); also called germlined 15B2) VH: EVQLVESGGGLVKPGGSLRLSCAASGFTFRSYSMNWVRQAPGKGLEWVSSISGSSNYIYYADSVKGRFTISRDNAKNSLYLQMNSLRAEDTAVYYCARGGNYYVEYFQYWGQGTLVTVSS VL: EIVLTQSPGTLSLSPGERATLSCRASQYISSNYLAWYQQKPGQAPRLLIYGASNRATGIPDRFSGSGSGTDFTLTISRLEPEDFAVYYCQQYGSSPITFGQGTKLEIK ?
*A* 2.56

Where these numbers come from: patent US20210214460A1
